The measured values listed here are drawn from patent US20030105095A1.

target_or_system: cyclooxygenase-2 (Mus musculus)
Construct: blended with 3% FBS-RPMI 1640 medium containing 10 μg/ml of LPS in each well; endogenous in cells; host or cells: primary mouse peritoneal macrophages, pretreated with 500 μM aspirin and induced with LPS
Sequence (Q05769 18-604): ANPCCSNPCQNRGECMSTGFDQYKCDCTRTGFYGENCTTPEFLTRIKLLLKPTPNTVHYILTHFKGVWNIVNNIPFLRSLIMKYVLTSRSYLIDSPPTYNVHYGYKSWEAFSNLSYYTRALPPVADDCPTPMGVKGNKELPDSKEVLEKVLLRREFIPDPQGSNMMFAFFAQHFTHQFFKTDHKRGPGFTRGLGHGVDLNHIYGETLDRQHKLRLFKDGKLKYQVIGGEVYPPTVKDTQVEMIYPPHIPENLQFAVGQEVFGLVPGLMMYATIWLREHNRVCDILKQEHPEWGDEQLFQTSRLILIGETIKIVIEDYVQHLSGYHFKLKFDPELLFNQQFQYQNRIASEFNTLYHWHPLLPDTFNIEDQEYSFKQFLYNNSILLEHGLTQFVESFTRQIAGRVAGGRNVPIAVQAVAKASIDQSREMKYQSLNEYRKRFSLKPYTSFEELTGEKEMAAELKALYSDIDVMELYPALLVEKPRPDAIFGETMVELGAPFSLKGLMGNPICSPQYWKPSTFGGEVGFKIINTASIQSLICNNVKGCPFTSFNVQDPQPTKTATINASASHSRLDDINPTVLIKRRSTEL
assay: Cyclooxygenase-2 inhibition in aspirin-treated, LPS-induced mouse peritoneal macrophages (PGE2 ELISA)
Format: cell-based
assay_context: 100 nM
observation_type: Inhibitory effects of cyclooxygenase (COX): COX-2 (% inhibition)
Numeric only. Scale: % inhibition

Lookup: GET /values?readout=Inhibitory effects of cyclooxygenase (COX): COX-2&system=cyclooxygenase-2 (Mus musculus)&item= CCCOc1ccc(-c2ccc(S(C)(=O)=O)cc2)cc1OCCC
Found: 5.5

Lookup: Likewise for CS(=O)(=O)c1ccc(-c2ccc(OC3CCCC3)c(OC3CCCC3)c2)cc1 ?
Found: 42.7

Lookup: // query: CS(=O)(=O)c1ccc(-c2ccc(OC3CC3)c(OC3CC3)c2)cc1
Found: 33.3

Lookup: // next record CCOc1ccc(-c2ccc(S(C)(=O)=O)cc2)cc1OCC
Found: 60.5

Lookup: Another: COc1ccc(-c2ccc(S(C)(=O)=O)cc2)cc1OC
Found: 50.7

Lookup: Same read-out for CCCCOc1cc(-c2ccc(S(C)(=O)=O)cc2)ccc1OC(C)C ?
Found: 59.8

Lookup: How about this molecule: CS(=O)(=O)c1ccc(-c2ccc(OCc3ccccc3)c(OCc3ccccc3)c2)cc1
Found: 60.3

* * *

target_or_system: cyclooxygenase-1 (Mus musculus, UniProt P22437)
Construct: endogenous in cells; host or cells: primary mouse peritoneal macrophages (unstimulated)
Sequence (P22437 27-602): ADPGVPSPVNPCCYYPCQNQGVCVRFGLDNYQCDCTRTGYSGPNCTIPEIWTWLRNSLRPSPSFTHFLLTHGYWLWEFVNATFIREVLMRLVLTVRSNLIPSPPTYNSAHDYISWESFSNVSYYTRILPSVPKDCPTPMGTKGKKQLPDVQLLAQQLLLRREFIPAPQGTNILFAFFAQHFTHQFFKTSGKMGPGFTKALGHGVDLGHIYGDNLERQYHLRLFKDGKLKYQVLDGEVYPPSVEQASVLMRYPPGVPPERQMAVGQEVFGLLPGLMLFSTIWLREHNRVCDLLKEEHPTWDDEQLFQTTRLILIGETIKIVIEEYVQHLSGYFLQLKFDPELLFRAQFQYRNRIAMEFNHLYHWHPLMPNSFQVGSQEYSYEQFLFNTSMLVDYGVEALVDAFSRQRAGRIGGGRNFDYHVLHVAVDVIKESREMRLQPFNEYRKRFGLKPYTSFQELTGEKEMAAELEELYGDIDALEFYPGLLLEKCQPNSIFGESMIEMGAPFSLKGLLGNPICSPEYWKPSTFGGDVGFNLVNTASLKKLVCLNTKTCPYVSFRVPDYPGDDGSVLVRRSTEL
assay: Cyclooxygenase-1 inhibition in mouse peritoneal macrophages (PGE2 ELISA)
Type: cell-based
assay_context: 3 μM
Decide using Inhibitory effects of cyclooxygenase (COX): COX-1: a value greater than or equal to 50 % inhibition is YES, a smaller one is NO.

Lookup: Does the compound CCOc1ccc(-c2ccc(S(C)(=O)=O)cc2)cc1OCC have recorded Inhibitory effects of cyclooxygenase (COX): COX-1 that is 50 % inhibition or more?
Found: YES

Lookup: Check CCCCOc1ccc(-c2ccc(S(C)(=O)=O)cc2)cc1OCCCC too.
Found: NO

Lookup: What about this compound? COc1ccc(-c2ccc(S(C)(=O)=O)cc2)cc1OC
Found: NO

Lookup: Next: CC(C)Oc1ccc(-c2ccc(S(C)(=O)=O)cc2)cc1OC(C)C
Found: YES

Lookup: What would you report for CS(=O)(=O)c1ccc(-c2ccc(OC3CCCC3)c(OC3CCCC3)c2)cc1 ?
Found: NO

Lookup: Next compound: CS(=O)(=O)c1ccc(-c2ccc(OCc3ccccc3)c(OCc3ccccc3)c2)cc1
Found: NO

Lookup: Next compound up: CCCOc1ccc(-c2ccc(S(C)(=O)=O)cc2)cc1OCCC
Found: NO
